Some variants, each annotated with its measured protein stability index.
B1: CDKN1A (parent)
chain: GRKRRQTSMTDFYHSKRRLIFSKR

Variants of: B1
Assay: protein stability index of a GFP-peptide fusion (GPS, HEK-293T) (PSI 1-6); higher = more stable;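 note: lentivirally expressed fusions sorted by FACS into six bins by GFP to DsRed ratio, PSI derived from sequencing read proportions per bin multiplied by bin number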
Details: c terminus: a fixed tail appended
Reply with the value as a number alone.

# example entries with known answers
In [3]: df
Out[3]:
   alteration             test_readout  test_value
0        T10H  protein stability index        2.93
1        Y13V  protein stability index        2.79
2        K16E  protein stability index        3.76
3         Q6M  protein stability index        2.04
4         R4C  protein stability index        2.73

What the record says about R18D : protein stability index is 2.48

What the record says about R4K : protein stability index is 3.46

What the record says about D11I : protein stability index is 2.12

What the record says about L19P : protein stability index is 2.14

What the record says about S8E : protein stability index is 2.74

What the record says about S8T : protein stability index is 3.3

What the record says about F12H : protein stability index is 1.61

What the record says about T7K : protein stability index is 3.09

What the record says about R2E : protein stability index is 4.5

What the record says about D11K : protein stability index is 2.77

What the record says about T10L : protein stability index is 2.45

What the record says about R4S : protein stability index is 2.85
